Values from paper PMC11006503

# Test system: HepG2
# ASSAY_TEXT: MTT cell proliferation assay
# Assay type: cell-based, human
# RECORDED_CONDITIONS: MTT, 24 h, mean ± SEM
pIC50: −log10 of the molar value.
TEST_READOUT: pIC50

>  <COMPOUND>
CC1=[N+]2N=C(N)[S][Sn-2]23([c]2ccccc2)([c]2ccccc2)[O]C(c2ccncc2)=N[N+]3=C1C [complex 3, [SnPh2L^1]n]

>  <TEST_RESULT>
5.80

$$$$
>  <COMPOUND>
N.N.[Cl][Pt][Cl] [Cisplatin, cisplatin, reference compound]

>  <TEST_RESULT>
4.94

$$$$
>  <COMPOUND>
CC1=[N+]2N=C(N)[S][Sn-2]23([CH3])([CH3])[O]C(c2ccncc2)=N[N+]3=C1C [complex 1, [SnMe2L^1]n]

>  <TEST_RESULT>
5.30

$$$$
>  <COMPOUND>
CC(=N\NC(=O)c1ccncc1)/C(C)=N/NC(N)=S [[L ^ 1 H 3 ]Cl]

>  <TEST_RESULT>
5.20

$$$$
